Cited source: patent US6670384B2

- assay-procedure: Pharmacokinetics of Compound II given orally and intravenously to cancer patients (plasma, LC/MS/MS)
- Assay type: in vivo, human
- measurement-parameters: human, plasma; 20 mg/m^2, IV 30-minute infusion, patients N=3, mean
- Description: Patients with Advanced Malignancies were administered Compound II weekly as a 30-minute infusion (a course=3 intravenous weekly administrations). Patients received doses of 1, 2.5, 5, 10, 20, 25, or 30 mg/m^2. […] Samples were analyzed by adding an internal standard to 0.2 mL of plasma sample, precipitating with acetone, and then extracting the supernatant with 1-chlorobutane. […] The plasma concentration versus time data were analyzed using non-compartmental methods. […]
recorded-endpoint: Cmax (ng/mL)
Value expressed in ng/mL; do not type the unit.

Which Cmax value is on record for C/C(=C\c1csc(C)n1)C1C[C@@H]2O[C@]2(C)CCC[C@H](C)[C@H](O)[C@@H](C)C(=O)C(C)(C)[C@@H](O)CC(=O)N1 (relative stereo) [Compound II] ?
251

---

- assay-procedure: Pharmacokinetics of Compound II given orally and intravenously to cancer patients (plasma, LC/MS/MS)
- Assay type: in vivo, human
- measurement-parameters: human, plasma; 20 mg/m^2, oral solution vs IV, patients N=3, mean; read-out: % F (absolute bioavailability)
recorded-endpoint: bioavailability
Number first, unit second: that is the form wanted.

Which bioavailability value is on record for C/C(=C\c1csc(C)n1)C1C[C@@H]2O[C@]2(C)CCC[C@H](C)[C@H](O)[C@@H](C)C(=O)C(C)(C)[C@@H](O)CC(=O)N1 (relative stereo) ?
43.5%

---

- assay-procedure: Pharmacokinetics of Compound II given orally and intravenously to cancer patients (plasma, LC/MS/MS)
- Type: in vivo, human
- measurement-parameters: human, plasma, 25 mg/m2; 25 mg/m^2, oral solution, patients N=11, median
recorded-endpoint: Tmax (min)
Value expressed in min; do not type the unit.

Which Tmax value is on record for C/C(=C\c1csc(C)n1)C1C[C@@H]2O[C@]2(C)CCC[C@H](C)[C@H](O)[C@@H](C)C(=O)C(C)(C)[C@@H](O)CC(=O)N1 (relative stereo) [Compound II] ?
30

---

- assay-procedure: Pharmacokinetics of Compound II given orally and intravenously to cancer patients (plasma, LC/MS/MS)
- Format: in vivo, human
- measurement-parameters: human, plasma; 30 mg/m^2, oral solution vs IV, patients N=4, mean; read-out: % F (absolute bioavailability)
- Method: Patients with Advanced Malignancies were administered Compound II weekly as a 30-minute infusion (a course=3 intravenous weekly administrations). Patients received doses of 1, 2.5, 5, 10, 20, 25, or 30 mg/m^2. […] Samples were analyzed by adding an internal standard to 0.2 mL of plasma sample, precipitating with acetone, and then extracting the supernatant with 1-chlorobutane. […] The plasma concentration versus time data were analyzed using non-compartmental methods. […]
recorded-endpoint: bioavailability (%)
Value expressed in %; do not type the unit.

Which bioavailability value is on record for C/C(=C\c1csc(C)n1)C1C[C@@H]2O[C@]2(C)CCC[C@H](C)[C@H](O)[C@@H](C)C(=O)C(C)(C)[C@@H](O)CC(=O)N1 (relative stereo) [Compound II] ?
62.2

---

- assay-procedure: Pharmacokinetics of Compound II given orally and intravenously to cancer patients (plasma, LC/MS/MS)
- Format: in vivo, human
- measurement-parameters: human, plasma; 25 mg/m^2, IV 30-minute infusion, patients N=11, mean
recorded-endpoint: Cmax (ng/mL)
Value expressed in ng/mL; do not type the unit.

Which Cmax value is on record for C/C(=C\c1csc(C)n1)C1C[C@@H]2O[C@]2(C)CCC[C@H](C)[C@H](O)[C@@H](C)C(=O)C(C)(C)[C@@H](O)CC(=O)N1 (relative stereo) ?
447
